# credit: ChEMBL document CHEMBL5236556

pIC50 values, listed per item
measurement-target: UniProt:P49761
Sequence (P49761 whole entry): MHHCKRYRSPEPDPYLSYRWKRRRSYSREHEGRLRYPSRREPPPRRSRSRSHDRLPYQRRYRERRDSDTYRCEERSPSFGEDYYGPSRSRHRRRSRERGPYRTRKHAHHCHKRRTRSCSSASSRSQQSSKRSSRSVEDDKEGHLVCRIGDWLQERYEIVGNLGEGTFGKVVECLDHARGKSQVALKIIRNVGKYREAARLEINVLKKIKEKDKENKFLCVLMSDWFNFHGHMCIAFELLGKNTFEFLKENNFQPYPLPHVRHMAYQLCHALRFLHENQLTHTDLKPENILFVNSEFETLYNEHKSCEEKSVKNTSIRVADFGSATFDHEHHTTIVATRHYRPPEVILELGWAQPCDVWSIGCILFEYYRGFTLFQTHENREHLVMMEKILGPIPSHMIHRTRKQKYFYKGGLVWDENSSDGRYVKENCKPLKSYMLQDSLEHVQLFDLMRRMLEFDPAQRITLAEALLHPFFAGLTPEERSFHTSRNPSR
pIC50: −log10 of the molar value.

Query pIC50 on UniProt:P49761 for O=C1NC(Nc2ccccc2)=N/C1=C\c1ccc2c(c1)OCO2
< 5.00

Entry to check: O=[N+]([O-])c1ccccc1-n1cc(COc2cccc3cnc(Nc4cccc(Cl)c4)nc23)nn1
< 6.00

Entry to check: COc1c(O)ccc2c(=O)c3c(O)cc4c(c3[nH]c12)C=CC(C)(C)O4
< 5.70

Entry to check: Cc1ccc(CNc2ncnc3ccc(-c4ccc(CO)o4)cc23)o1
< 5.00

Entry to check: COc1cc(/C=C2\N=C(N)NC2=O)ccc1O
< 5.70

Entry to check: O=C(O)c1nc2ccccc2c2[nH]c3c(Cl)cccc3c12
< 7.00

###

Here's a batch of compounds along with measured IC50 for Dual specificity protein kinase CLK4 (Homo sapiens).
State just the number; it will be interpreted in nM.

Past entries and their recorded results:
1) CC(C)c1cnn2c(NCc3ccc(-c4ccccn4)cc3)nc(N[C@H]3CC[C@H](N)CC3)nc12 = 89
2) COc1cc(/C=C2\N=C(N)NC2=O)ccc1O = 470
3) O=C(O)c1nc2ccccc2c2[nH]c3c(Cl)cccc3c12 = 45

State the recorded IC50 for this entry: CC(C)n1cnc2c(Nc3cc(N)cc(Cl)c3)nc(NC3CCCCC3N)nc21 (configuration not stated)
25

Entry to check: COc1ccc2sc(C(=O)N(C)Cc3cccc(F)c3)cc2c1
2.3

Entry to check: O=[N+]([O-])c1ccccc1-n1cc(COc2cccc3cnc(Nc4cccc(Cl)c4)nc23)nn1
20

Entry to check: c1csc(CNc2ncnc3ccc(-c4ccc5c(c4)OCO5)cc23)c1
50
